test system: norepinephrine; test: combined apomorphine, tryptamine, norepinephrine (ATN) test in rats: norepinephrine (NOR), peripheral α-adrenergic antagonism; assay type: in vivo; details: Rattus norvegicus, read-out: NOR, ED50
measurement_name: ED50

Sample records with ED50:
Recorded ED50 (molecule Cc1nn2c(=O)c(CCN3CCC(n4ccc5cc(F)ccc54)CC3)c(C)nc2s1 [Compound 8] ): 10 mg/kg

ED50 in this record for Cc1nc2c(C)cccn2c(=O)c1CCN1CCC(n2ccc3cc(F)ccc32)CC1 [Compound 20] : > 10 mg/kg

Further cases:
// ED50 lookup, molecule = COC1CCCn2c1nc(C)c(CCN1CCC(n3ccc4cc(F)ccc43)CC1)c2=O (centres unmarked) [Compound 15] , result: 10 mg/kg

Please fill in: ED50 reported for O=C(O)/C=C/C(=O)O.O=c1[nH]c2ccccc2n1CCCN1CCC(n2ccc3cc(F)ccc32)CC1 [Compound 28] = > 10 mg/kg

ED50 reported for this molecule CCSc1nc(C)c(CCN2CCC(n3ccc4ccccc43)CC2)c(=O)n1C [Compound 25] : > 10 mg/kg

The recorded ED50 for Cc1cc2nc(C)c(CCN3CCC(n4ccc5cc(F)ccc54)CC3)c(=O)n2o1 [Compound 10] is 10 mg/kg

Form: molecule = Cc1nc2c(C)cccn2c(=O)c1CCN1CCC(n2ccc3ccccc32)CC1 [Compound 19] ; ED50 = > 10 mg/kg

For record Cc1nc2sccn2c(=O)c1CCN1CCC(n2ccc3ccccc32)CC1 [Compound 3] the listed ED50 is > 10 mg/kg

src = patent US5919788A
